# System: NCI-H522 lung
# Experimental Protocol: NCI-60 one-dose screen, 48 h
# Applied Conditions: 10 µM unless noted
This is part of a sample that, as a whole, favours compounds with a hit. Of some 83,000 tested, about 20% had one in any assay. Calls of active or inactive are those of the source. How the source made its calls: active means growth percent below 10; inactive means the rest.
Respond with a class label; see active, inactive

Answered examples (3):
* C#CCOc1ccc(/C=N/Nc2nc(-c3ccc(OC)cc3)cs2)cc1 | inactive
* CNC(=O)c1cc(-c2ccc(NC(=S)Nc3cccc(C(F)(F)F)c3)cc2)nc2cccnc12 | inactive
* Cc1ccc(/C=N/Nc2nc(Nc3ccccc3)nc(Nc3ccc(S(N)(=O)=O)cc3)n2)cc1 | inactive

-- ask For COc1ccc(Cn2cc(C#N)c(N)c2C(C)=O)cc1 , which call appears in the assay record?
-- reply inactive

-- ask For CCNC(=O)Oc1ccc(/C(=C(/C)c2ccc(Cl)cc2)c2ccc(OCCN3CCCCCC3)cc2)cc1 , which call appears in the assay record?
-- reply inactive

-- ask For O=C(/C=C/c1cc(Cl)ccc1Cl)Nc1ncc(Cc2ccc(Cl)cc2)s1 , which call appears in the assay record?
-- reply active

-- ask For O=C(Nc1ccc(N=Cc2c(O)[nH]c3ccccc23)cc1)Nc1ccc(S(=O)(=O)Nc2ncccn2)cc1 , which call appears in the assay record?
-- reply inactive

* * *

# System: HCT-116 colon
# Experimental Protocol: NCI-60 one-dose screen, 48 h (100 = growth as untreated, 0 = no growth, -100 = all killed)
# Applied Conditions: 10 µM unless noted
# Protocol: Growth inhibition of the HCT-116 human tumor cell line is measured as a screen for anti-cancer activity. Cells are grown in 96 well plates and exposed to the test compound for 48 hours. Compounds are tested at a single concentration, which is 10^-5 M for most compounds. The reported endpoint is percent growth (GI% or GIPRCNT), where numbers from 0 - 100% represent growth inhibition, and numbers from -100% - 0 represent cell death. For example, a value of 40 represents 60% growth inhibition. […]
This is part of a sample that, as a whole, favours compounds with a hit. Of some 83,000 tested, about 20% had one in any assay.
// reported growth for each item listed
Numeric answer only, unit % assumed.

- O=C(N/N=C\c1ccc(F)cc1)c1ccc2nc(-c3ccc(Br)cc3)[nH]c2c1: -21
- COc1ccccc1/C=C/C(=O)c1nnn(-c2ccc(F)cc2)c1C: 10.7

Next compound, growth to be filled in.
-- ask Provide growth value for the following compound: CC(C)(C)Nc1nc2c(OCCc3ccccc3)cccn2c1-c1ccc([N+](=O)[O-])cc1
-- reply 49.7

* * *

# System: SK-OV-3 ovarian
# Experimental Protocol: NCI-60 one-dose screen, 48 h (100 = growth as untreated, 0 = no growth, -100 = all killed)
# Applied Conditions: 10 µM unless noted
The panel holds about 83,000 compounds, 20% with a hit somewhere; the sample as a whole holds those more often.
// reported growth for each item listed
Numeric answer only, unit % assumed.

• CC1=C(C)C(=O)C(Nc2ccc3c(c2)OCCO3)=C(Br)C1=O = 93.9
• Cc1ccc2c(n1)C(=O)C(Cl)=C(Nc1cccc(C(F)(F)F)c1)C2=O = 89.8
• CCOC(=O)C1=C(C)NC(C)=C(C(=O)OCc2ccccc2)C1c1cccc(C#N)c1 (stereo not drawn) = 75.1
• CC[C@H](CC[C@@H](C)[C@H]1CC[C@H]2[C@@H]3CC(=O)C4=CC(=O)/C(=C/c5ccc([N+](=O)[O-])cc5)C[C@]4(C)[C@H]3CC[C@]12C)C(C)C = 124
• CNc1sc(S(=O)(=O)NC)nc1S(=O)(=O)c1ccc(C)cc1 = 105

-- ask Provide growth value for the following compound: O=C(NCCNc1cc(-c2cn(-c3ccccc3)nc2-c2cccc(O)c2)ccn1)Nc1cc(C(F)(F)F)cc(C(F)(F)F)c1
-- reply 104

-- ask Provide growth value for the following compound: O=C(CCCCCCNC(=O)C(O)(O)C(F)(F)F)Nc1ncc(-c2ccccc2)s1
-- reply -23.8

-- ask Provide growth value for the following compound: O=C(/C=C/c1cccc(Br)c1)c1cccc(OCCCCOc2cccc(C(=O)/C=C/c3cccc(Br)c3)c2)c1
-- reply 107

* * *

# System: MOLT-4 leukemia
# Experimental Protocol: NCI-60 one-dose screen, 48 h (100 = growth as untreated, 0 = no growth, -100 = all killed)
# Applied Conditions: 10 µM unless noted
# Protocol: Growth inhibition of the MOLT-4 human tumor cell line is measured as a screen for anti-cancer activity. Cells are grown in 96 well plates and exposed to the test compound for 48 hours. Compounds are tested at a single concentration, which is 10^-5 M for most compounds. The reported endpoint is percent growth (GI% or GIPRCNT), where numbers from 0 - 100% represent growth inhibition, and numbers from -100% - 0 represent cell death. For example, a value of 40 represents 60% growth inhibition. […]
About 83,000 compounds went through this panel and 20% of them were active in at least one assay; those are over-represented in the sample as a whole.
// reported growth for each item listed
Numeric answer only, unit % assumed.

Some entries whose results are on file:
• CC(=C(c1ccc(OCCN(C)C)cc1)c1ccc(OCCN(C)C)cc1)c1ccc(Cl)cc1 = -49.7
• CCOP(=O)(OCC)OC[C@]12CCC(C)(C)C[C@H]1C1=CC[C@@H]3[C@@]4(C)CC[C@H](OP(=O)(OCC)OCC)C(C)(C)[C@@H]4CC[C@@]3(C)[C@]1(C)CC2 = 32.7
• CNC(=O)c1cc(-c2ccc(NC(=S)Nc3cccc(C(F)(F)F)c3)cc2)nc2cccnc12 = 117

Next molecule, growth to be filled in.
-- ask Provide growth value for the following molecule: O=C(CCl)Nc1ccc(NC(=O)c2cc(Cl)ccc2O)c(Cl)c1
-- reply 25.7

* * *

# System: MCF7 breast
# Experimental Protocol: NCI-60 one-dose screen, 48 h (100 = growth as untreated, 0 = no growth, -100 = all killed)
# Applied Conditions: 10 µM unless noted
Compounds without any hit were thinned out: in the full panel of roughly 83,000, 20% have a hit. The source made the active and inactive calls. The calls were made as follows: active = growth percent below 10; inactive = the rest.
Recorded Metric: growth

Some entries whose results are on file:
- COc1cc2c3c(cc4c5c(ccc4c3c1OC)OCO5)N(CCN(C)C)C2=O: 0.153% (active)
- O=C(NCCNc1cc(-c2cn(-c3ccccc3)nc2-c2cccc(O)c2)ccn1)Nc1cc(C(F)(F)F)cc(C(F)(F)F)c1: 87.2% (inactive)
- COc1ccc(/C=N/NC(=O)c2c(N)nn(C)c2Nc2ccccc2)cc1Oc1ccccc1: 75.3% (inactive)

-- ask Fill: growth (MCF7 breast) for this molecule CC(=O)Nc1nc(C)c(-c2csc(Nc3ccccc3)n2)s1
-- reply 12.3% (inactive)

-- ask Fill: growth (MCF7 breast) for this molecule CN1CCN(CCNc2nc(-c3cccc(NS(=O)(=O)c4cccc5c(N(C)C)cccc45)c3)cs2)CC1
-- reply 11.1% (inactive)

-- ask Fill: growth (MCF7 breast) for this molecule CCOP(=O)(OCC)OC[C@]12CCC(C)(C)C[C@H]1C1=CC[C@@H]3[C@@]4(C)CC[C@H](OP(=O)(OCC)OCC)C(C)(C)[C@@H]4CC[C@@]3(C)[C@]1(C)CC2
-- reply 28.1% (inactive)

-- ask Fill: growth (MCF7 breast) for this molecule O=C(CSc1nnc(-c2cccs2)n1-c1ccccc1)Nc1ccccc1F
-- reply 58.9% (inactive)

-- ask Fill: growth (MCF7 breast) for this molecule CS(=O)(=O)c1ccc(/C(=N/N=C(N)N)c2ccc(F)cc2)cc1
-- reply 15.1% (inactive)

-- ask Fill: growth (MCF7 breast) for this molecule FC(F)(F)c1cc(Br)cc(-c2cc(-c3ccc4c(c3)OCCO4)[nH]n2)c1
-- reply 11.4% (inactive)

-- ask Fill: growth (MCF7 breast) for this molecule O=C(N/N=C/c1cc2ccccc2nc1Cl)c1cc(-c2nc3ccccc3[nH]2)nc2ccccc12
-- reply 89.7% (inactive)

* * *

// reported growth for each item listed
# Tested on: SF-295 CNS
# Experimental Protocol: NCI-60 one-dose screen, 48 h (100 = growth as untreated, 0 = no growth, -100 = all killed)
# Applied Conditions: 10 µM unless noted
About 83,000 compounds went through this panel and 20% of them were active in at least one assay; those are over-represented in the sample as a whole.
Numeric answer only, unit % assumed.

Some entries whose results are on file:
• COc1cc(-c2nc(-c3ccccc3)[nH]c2-c2ccnc(NCCCNS(=O)(=O)c3ccc(C)cc3)n2)ccc1F = 99.6
• CN1CCN(c2ccc(Nc3nc(NCCCNS(=O)(=O)c4ccc(Cl)cc4)c4sccc4n3)cc2)CC1 = -68.5
• CCCC[n+]1ccc(SCC(=O)n2ccc3ccccc32)c2ccccc21 = 96.5
• CC(=O)OC[C@]12CC[C@@H](C(=O)/C=C/c3cccnc3)[C@@H]1[C@H]1CC[C@@H]3[C@@]4(C)CC[C@H](OC(C)=O)C(C)(C)[C@@H]4CC[C@@]3(C)[C@]1(C)CC2 = 29.7
• CCCc1[nH]c(-c2cc(N)ccc2Cl)c2c1C(=O)CCCC2 = 80.8
• Cc1ccc2c(n1)C(=O)C(Cl)=C(Nc1ccc(C(F)(F)F)cc1)C2=O = 112

-- ask Provide growth value for the following molecule: COc1ccc2[nH]cc(-c3nn4cc(-c5ccncc5)nc4s3)c2c1
-- reply 62.8

-- ask Provide growth value for the following molecule: C=C(C)[C@@H]1CC[C@]2(C(=O)N3CCN(C)CC3)CC[C@]3(C)[C@H](CC[C@@H]4[C@@]5(C)CC[C@H](OP(=O)(OCC)OCC)C(C)(C)[C@@H]5CC[C@]43C)[C@@H]12
-- reply 89.4
